This listing pairs molecules with measured pEC50.
# Tested on: human GLP-1 receptor (Homo sapiens, UniProt P43220)
# Sequence (P43220 24-463): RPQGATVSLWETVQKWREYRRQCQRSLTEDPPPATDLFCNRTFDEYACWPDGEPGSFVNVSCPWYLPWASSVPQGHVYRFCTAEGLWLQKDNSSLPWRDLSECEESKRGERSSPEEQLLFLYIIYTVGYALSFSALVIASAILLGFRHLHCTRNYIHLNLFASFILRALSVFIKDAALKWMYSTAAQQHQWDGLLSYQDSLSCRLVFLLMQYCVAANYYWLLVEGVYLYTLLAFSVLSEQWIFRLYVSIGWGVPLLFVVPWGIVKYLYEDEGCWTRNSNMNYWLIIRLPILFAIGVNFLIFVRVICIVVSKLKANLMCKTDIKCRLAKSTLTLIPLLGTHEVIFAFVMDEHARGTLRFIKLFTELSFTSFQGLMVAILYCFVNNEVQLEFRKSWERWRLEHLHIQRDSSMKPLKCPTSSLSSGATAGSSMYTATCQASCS
# Assay notes: GLP-1R cAMP assay (cAMP accumulation in CHO cells stably overexpressing the human GLP-1 receptor, HitHunter kit)
# Assay conditions: CHO cells stably overexpressing human GLP-1R, 30 min, 20-point dose response in triplicate
# Experimental: CAMP accumulation was measured in Chinese hamster ovary (CHO) cells (10,000 cells/well) stably overexpressing the human GLP-1 receptor using the HitHunter CAMP Assay for Small Molecules Kit (Eurofins). […] After overnight incubation, luminescence was measured using a Perkin Elmer Envision plate reader. Dose response curves were analyzed using GraphPad Prism 9.0. […]
pEC50: −log10 of the molar value.

- Smiles text: "C[C@H]1C[C@@H](Oc2ccnc(COc3ccc(F)cc3C#N)n2)CCN1Cc1nc2cnc(C(=O)O)cc2n1C[C@@H]1CCO1"
  Meas value: "8.00 to 9.00"
- Smiles text: "C[C@H]1C[C@@H](Oc2ccnc(COc3ncc(F)cc3C#N)n2)CCN1Cc1nc2c(F)cc(C(=O)O)cc2n1C[C@@H]1CCO1"
  Meas value: "> 10.00"
- Smiles text: "C[C@H]1C[C@@H](Oc2ccnc(COc3ncc(C#N)cc3F)n2)CCN1Cc1nc2c(F)cc(C(=O)O)cc2n1C[C@@H]1CCO1"
  Meas value: "> 10.00"
- Smiles text: "C[C@H]1C[C@@H](Oc2ccnc(COc3ccc(F)cc3F)n2)CCN1Cc1nc2ccc(C(=O)O)cc2n1C[C@@H]1CCS1(=O)=O"
  Meas value: "9.00 to 10.00"

Determine from records and report pEC50 for C[C@H](Cn1c(CN2CC[C@H](Oc3ccnc(COc4ccc(F)cc4F)n3)C[C@@H]2C)nc2ccc(C(=O)O)cc21)OC1CC1 9.00 to 10.00

In one line, give reported pEC50 of the entry N#Cc1ccc(OCc2nccc(OC3CCN(Cc4nc5cnc(C(=O)O)cc5n4C[C@@H]4CCO4)CC3)n2)c(F)c1 . 8.00 to 9.00

Answer with the recorded pEC50 of C[C@H]1C[C@@H](Oc2ccnc(COc3ccc(Cl)cn3)c2)CCN1Cc1nc2c(F)cc(C(=O)O)cc2n1C[C@@H]1CCO1 only. 9.00 to 10.00

Answer with the recorded pEC50 of C[C@H]1C[C@@H](Oc2ccnc(COc3ccc(F)cc3F)n2)CCN1Cc1nc2ccc(CC(=O)O)cc2n1C[C@@H]1CCO1 only. 8.00 to 9.00

###

# Tested on: human GLP-1 receptor (Homo sapiens, UniProt P43220)
# Construct: expressed in transfected cells
# Assay notes: GLP-1R cAMP assay (cAMP accumulation in CHO cells stably overexpressing the human GLP-1 receptor, HitHunter kit)
# Assay type: cell-based
# Assay conditions: CHO cells stably overexpressing human GLP-1R, 30 min, 20-point dose response in triplicate
# Procedure: CAMP accumulation was measured in Chinese hamster ovary (CHO) cells (10,000 cells/well) stably overexpressing the human GLP-1 receptor using the HitHunter CAMP Assay for Small Molecules Kit (Eurofins). […] After overnight incubation, luminescence was measured using a Perkin Elmer Envision plate reader. Dose response curves were analyzed using GraphPad Prism 9.0. […]
Some molecules, each annotated with its measured EC50.

- Molecule: "N#Cc1ccc(OCc2nccc(O[C@H]3CC[C@H](Cc4nc5ccc(C(=O)O)cc5n4C[C@@H]4CCO4)CC3)n2)c(F)c1 [Compound 640]"
  Meas value: "< 0.1 nM"
- Molecule: "N#Cc1ccc(OCc2nccc(OC3CCC4(CC3)CC4c3nc4ccc(C(=O)O)cc4n3C[C@@H]3CCO3)n2)c(F)c1 (stereo partly drawn) [Compound 571]"
  Meas value: "10 to 100 nM"
- Molecule: "C[C@H]1C[C@@H](Oc2ccnc(COc3ncc(Cl)cc3F)c2)CCN1Cc1nc2ccc(C(=O)O)cc2n1C[C@@H]1CCO1 [Compound 615]"
  Meas value: "0.1 to 1 nM"
- Molecule: "C[C@@H](Cn1c(CN2CC[C@H](Oc3ccnc(COc4ccc(F)cc4F)n3)C[C@@H]2C)nc2ccc(C(=O)O)cc21)OC(F)F [Compound 591]"
  Meas value: "0.1 to 1 nM"
- Molecule: "C[C@H](Cn1c(CN2CC[C@H](Oc3ccnc(COc4ccc(F)cc4F)n3)C[C@@H]2C)nc2ccc(C(=O)O)cc21)OCC(F)(F)F [Compound 594]"
  Meas value: "1 to 10 nM"

Let's switch to this molecule now.
Determine from records and report EC50 for C[C@H]1C[C@@H](Oc2ccnc(COc3ccc(F)cc3F)n2)CCN1Cc1nc2ccc(CCC(=O)O)cc2n1C[C@@H]1CCO1 [Compound 623] 1 to 10 nM

###

Catalogue of pEC50 values
# Tested on: human GLP-1 receptor (Homo sapiens, UniProt P43220)
# Assay notes: GLP-1R cAMP assay (cAMP accumulation in CHO cells stably overexpressing the human GLP-1 receptor, HitHunter kit)
# Assay conditions: CHO cells stably overexpressing human GLP-1R, 30 min, 20-point dose response in triplicate
pEC50: −log10 of the molar value.

Consider the following illustrative entries.
- Smiles text: "C[C@H]1C[C@@H](Oc2ccnc(COc3ccc(F)cc3F)n2)CCN1Cc1nc2ccc(C(=O)O)cc2n1C[C@@H]1CCOC1"
  pEC50: "9.00 to 10.00"
- Smiles text: "C[C@H]1C[C@@H](Oc2ccnc(COc3ccc(F)cc3F)n2)CCN1Cc1nc2ccc(C(=O)O)cc2n1C[C@H]1CCO1"
  pEC50: "9.00 to 10.00"
- Smiles text: "C[C@H](Cn1c(CN2CC[C@H](Oc3ccnc(COc4ncc(F)cc4F)n3)C[C@@H]2C)nc2c(F)cc(C(=O)O)cc21)OC(F)F"
  pEC50: "9.00 to 10.00"
- Smiles text: "CO[C@H]1COC[C@H]1n1c(CN2CC[C@H](Oc3ccnc(COc4ccc(F)cc4F)n3)C[C@@H]2C)nc2ccc(C(=O)O)cc21"
  pEC50: "9.00 to 10.00"
- Smiles text: "C[C@H]1C[C@@H](Oc2ccnc(COc3ccc(F)cc3F)n2)CCN1Cc1nc2ccccc2n1C[C@@H]1CCO1"
  pEC50: "7.00 to 8.00"

Now let's try a different one.
Determine its reported pEC50: C[C@H]1C[C@@H](Oc2ccnc(COc3ccc(F)cc3C#N)n2)CCN1Cc1nc2ccc(C(=O)NO)cc2n1C[C@@H]1CCO1 9.00 to 10.00

###

pEC50: recorded values
# Tested on: UniProtKB P43220
# Assay notes: GLP-1R cAMP assay (cAMP accumulation in CHO cells stably overexpressing the human GLP-1 receptor, HitHunter kit)
# Assay conditions: CHO cells stably overexpressing human GLP-1R, 30 min, 20-point dose response in triplicate
pEC50: −log10 of the molar value.

Sample answers from the record:
- Compound: "CC(c1nc2ccc(C(=O)O)cc2n1C[C@@H]1CCO1)N1CCC(Oc2ccnc(COc3ccc(F)cc3F)n2)CC1 (stereo partly drawn)"
  pEC50: "8.00 to 9.00"
- Compound: "C[C@H]1C[C@@H](Oc2ccnc(COc3ccc(F)cc3C#N)n2)CCN1Cc1nc2ccc(C(=O)O)c(F)c2n1C[C@@H]1CCO1"
  pEC50: "> 10.00"
- Compound: "C[C@H](Cn1c(CN2CC[C@H](Oc3ccnc(COc4ccc(F)cc4F)n3)C[C@@H]2C)nc2ccc(C(=O)O)cc21)OC(F)F"
  pEC50: "> 10.00"

Provide one value: measured pEC50 of C[C@H]1C[C@@H](Oc2ccnc(COc3ccc(F)cc3F)n2)CCN1Cc1nc2c(F)cc(C(=O)O)cc2n1C[C@@H]1CCCO1 > 10.00

Retrieve pEC50 measured for C[C@H]1C[C@@H](Oc2ccnc(COc3ccc(F)cc3C#N)n2)CCN1Cc1nc2ccc(C(=O)O)cc2n1C[C@H]1CCO1 and print it. 9.00 to 10.00

Entry C[C@H]1C[C@@H](Oc2ccnc(COc3ncc(F)cc3F)c2)CCN1Cc1nc2c(F)cc(C(=O)O)cc2n1C[C@@H]1CCO1 needs its pEC50 filled in; supply it. 8.00 to 9.00

Supply reported pEC50 belonging to this compound: C[C@@H](Cn1c(CN2CC[C@H](Oc3ccnc(COc4ccc(F)cc4F)n3)C[C@@H]2C)nc2ccc(C(=O)O)cc21)OCC(F)(F)F 9.00 to 10.00

###

Property: EC50; scope: individual molecules
# Tested on: human GLP-1 receptor (Homo sapiens, UniProt P43220)
# Assay notes: GLP-1R cAMP assay (cAMP accumulation in CHO cells stably overexpressing the human GLP-1 receptor, HitHunter kit)
# Assay conditions: CHO cells stably overexpressing human GLP-1R, 30 min, 20-point dose response in triplicate

As a guide, the following entries are already answered.
- Smiles text: "C[C@H]1C[C@@H](Oc2ccnc(COc3ccc(C#N)cc3F)n2)CCN1Cc1nc2ccc(C(=O)O)cc2n1C[C@@H]1CCCO1"
  EC50: "0.1 to 1 nM"
- Smiles text: "N#CC[C@H]1C[C@@H](Oc2ccnc(COc3ccc(F)cc3Cl)n2)CCN1Cc1nc2ccc(C(=O)O)cc2n1C[C@@H]1CCO1"
  EC50: "1 to 10 nM"
- Smiles text: "N#Cc1ccc(OCc2nccc(O[C@H]3CCN(Cc4nc5ccc(C(=O)O)cc5n4C[C@@H]4CCO4)[C@@H](C(F)(F)F)C3)n2)c(F)c1"
  EC50: "0.1 to 1 nM"

Supply recorded EC50 for CC[C@@H]1C[C@H](Oc2ccnc(COc3ccc(C#N)cc3F)n2)CCN1Cc1nc2ccc(C(=O)O)cc2n1C[C@@H]1CCO1 here. 1 to 10 nM

For the molecule Cc1cc2nc(CN3CC[C@H](Oc4ccnc(COc5ccc(F)cc5F)n4)C[C@@H]3C)n(C[C@@H]3CCO3)c2cc1C(=O)O , report EC50. 0.1 to 1 nM

Give EC50 for the following molecule: O=C(O)c1cc(F)c2nc(CN3CCC(Oc4ccnc(COc5ncc(Cl)cc5F)n4)CC3)n(C[C@@H]3CCO3)c2c1 < 0.1 nM

Please report the measured EC50 for CC[C@H]1C[C@@H](Oc2ccnc(COc3ccc(C#N)cc3F)n2)CCN1Cc1nc2ccc(C(=O)O)cc2n1C[C@@H]1CCO1 < 0.1 nM

Where do these numbers come from? They come from patent US20260317309A1.
